# target.or.system: human RXFP1 (Homo sapiens, UniProt Q9HBX9)
# Sequence (Q9HBX9 whole entry): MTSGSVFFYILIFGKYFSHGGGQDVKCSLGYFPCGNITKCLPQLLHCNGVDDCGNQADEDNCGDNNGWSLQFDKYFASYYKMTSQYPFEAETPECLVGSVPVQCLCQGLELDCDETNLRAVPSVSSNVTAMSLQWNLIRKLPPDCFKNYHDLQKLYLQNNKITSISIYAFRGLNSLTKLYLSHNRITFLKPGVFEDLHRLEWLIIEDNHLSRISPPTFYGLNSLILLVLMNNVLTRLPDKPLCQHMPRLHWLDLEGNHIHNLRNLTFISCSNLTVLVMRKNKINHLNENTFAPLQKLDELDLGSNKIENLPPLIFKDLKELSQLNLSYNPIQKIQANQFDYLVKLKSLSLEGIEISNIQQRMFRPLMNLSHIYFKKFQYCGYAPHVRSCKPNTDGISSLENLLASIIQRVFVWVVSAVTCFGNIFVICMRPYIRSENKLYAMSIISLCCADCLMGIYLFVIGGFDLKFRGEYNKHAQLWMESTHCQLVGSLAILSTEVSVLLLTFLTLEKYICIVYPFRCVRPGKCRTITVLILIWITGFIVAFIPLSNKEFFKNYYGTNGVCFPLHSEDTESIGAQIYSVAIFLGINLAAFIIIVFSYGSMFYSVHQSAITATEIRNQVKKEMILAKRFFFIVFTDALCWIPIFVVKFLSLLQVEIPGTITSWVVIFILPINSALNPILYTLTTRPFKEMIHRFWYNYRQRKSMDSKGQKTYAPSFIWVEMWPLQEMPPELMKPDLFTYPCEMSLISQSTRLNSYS
# assay.procedure: hRXFP1 HEK293 cAMP assay (HTRF)
# run.conditions: HEK293 cells stably expressing human RXFP1, 30 min at room temperature
measured.property: pEC50
Note on units: pEC50 is unitless, being -log10 of a concentration expressed in mol/L.

Item under review: `COc1ccc(C(=O)N2CCS(=O)(=O)CC2)cc1C(=O)N[C@H]1[C@@H](C(=O)Nc2ccc(F)c(C(F)(F)F)c2)[C@H]2CC[C@@H]1/C2=C\C1CC1` . Reported pEC50? 6.58

Item under review: `COc1ccc(S(=O)(=O)N2CCC(CCO)CC2)cc1C(=O)N[C@H]1[C@@H](C(=O)Nc2ccc(F)c(C(F)(F)F)c2)[C@H]2CC[C@@H]1/C2=C\C(F)(F)F` . Reported pEC50? 6.50

Item under review: COc1ccc(C#CCCOC(=O)NC2CCC2)cc1C(=O)N[C@@H]1C2CCC(/C2=C/C(F)(F)F)[C@@H]1C(=O)Nc1ccc(F)c(C(F)(F)F)c1 (some centres unmarked) . Reported pEC50? 6.98

Item under review: `COc1c(F)cc(C(=O)NCC2(S(C)(=O)=O)CC2)cc1C(=O)N[C@H]1[C@@H](C(=O)Nc2ccc(F)c(C(F)(F)F)c2)[C@H]2CC[C@@H]1/C2=C\C1CCCC1` . Reported pEC50? 8.64

Item under review: COc1ccc(C2CC2C(=O)N2CCC(O)CC2)cc1C(=O)N[C@H]1[C@@H](C(=O)Nc2ccc(F)c(C(F)(F)F)c2)[C@H]2CC[C@@H]1/C2=C\C1CC1 (single isomer, unassigned) [Example 324] . Reported pEC50? 8.31

Item under review: COc1ccc(C(=O)N2CCCC(CO)C2)cc1C(=O)N[C@H]1[C@@H](C(=O)Nc2ccc(F)c(C(F)(F)F)c2)[C@H]2CC[C@@H]1/C2=C\C1CC1 (some centres unmarked) [Example 234] . Reported pEC50? 7.19

Item under review: COc1ccc(CCC(C)(C)O)cc1C(=O)NC1C2CCC(/C2=C/C2CCCC2)[C@@H]1C(=O)Nc1ccc(F)c(C(F)(F)F)c1 (some centres unmarked) . Reported pEC50? 8.10

Item under review: `COc1cc(F)c(O[C@H]2CC[C@](C)(C(=O)O)CC2)cc1C(=O)N[C@H]1[C@@H](C(=O)NCC2(C)CCC2)[C@H]2CC[C@@H]1/C2=C\C1CC1` . Reported pEC50? 7.23

Item under review: COc1ccc(C#CCCO)cc1C(=O)N[C@@H]1C2CCC(/C2=C/C(F)(F)F)[C@@H]1C(=O)Nc1ccc(F)c(C(F)(F)F)c1 (some centres unmarked) . Reported pEC50? 7.18

Item under review: `COc1ccc(/C=C(/C)C(=O)N2CCC(O)CC2)cc1C(=O)N[C@H]1[C@@H](C(=O)Nc2ccc(F)c(C(F)(F)F)c2)[C@H]2CC[C@@H]1/C2=C\C(F)(F)F` . Reported pEC50? 5.95

Item under review: COc1ccc(S(=O)(=O)NC2CCOC2)cc1C(=O)NC1C2CCC(/C2=C/C(F)(F)F)[C@@H]1C(=O)Nc1ccc(F)c(C(F)(F)F)c1 (some centres unmarked) . Reported pEC50? 5.72
